- METHOD: Inhibition of human recombinant beta tryptase using S-2366 as substrate after 30 mins by spectrophotometry
pKi: −log10 of the molar value.
OBSERVABLE: pKi

Example compounds with recorded pKi:
1) Cc1ccccc1C#Cc1ccc(C(=O)N2CCC(c3cccc(CN)c3)CC2)o1 : 6.49
2) Cc1ccc(C#Cc2ccc(C(=O)N3CCC(c4cccc(CN)c4)CC3)o2)cc1 : 6.95
3) NCc1cccc(C2CCN(C(=O)c3ccc(C#Cc4cccs4)o3)CC2)c1 : 6.63
4) NCc1cccc(C2CCN(C(=O)c3ccc(C#Cc4cccnc4)o3)CC2)c1 : 7.08
5) NCc1cccc(C2CCN(C(=O)c3ccc(C#Cc4ccc(Cl)cc4)o3)CC2)c1 : 6.78

[1] NCc1cccc(C2CCN(C(=O)c3ccc(C#Cc4ccccc4Cl)o3)CC2)c1
[2] NCc1cccc(C2CCN(C(=O)c3ccc(C#Cc4ncccn4)o3)CC2)c1
Please let me know which one, 1 or 2 , has a lower measured pKi value. Output the label that corresponds to your choice.
2

[I] NCc1cccc(C2CCN(C(=O)c3ccc(C#Cc4cnccn4)o3)CC2)c1
[II] NCc1cccc(C2CCN(C(=O)c3ccc(C#Cc4cccc(F)c4)o3)CC2)c1
Given I and II , report the one with the higher recorded pKi. Kindly give the label for the entry you pick.
II
